Origin of values: patent US20060115475A1

# tested.system: T1, soluble human TLR3 extracellular domain (human, UniProt O15455 24-703)
# T1 construct: also called hTLR3 extracellular domain; extracellular domain of human TLR3
# assay.method.text: Biacore 2000, mAb captured on protein A, TLR3 in solution, 25 C, 1:1 model
In this section we review reported Kd values for a set of binders.
Respond numerically; units are nM and should not be typed.

Request the reported Kd associated with human-adapted anti-TLR3 mAb HV5/LV5 (antibody, human IgG4, V domains shown, Human IgG4 (S228P, F234A, L235A), kappa; not shown: human kappa light chain constant region) VH: QVQLVQSGAEVKKPGASVKVSCKASGYTFTTYWIHWVRQATGQGLEWMGEINPNNGRINYNEKFKTRVTMTRNTSISTAYMELSSLRSEDTAVYYCARVGVMITTFPYWGQGTLVTVSS VL: DIQMTQSPSSLSASVGDRVTITCRASGNIHNYLAWYQQKPGKVPKLLIYNAKTLADGVPSRFSGSGSGTDFTLTISSLQPEDVATYYCQHFWSTPFTFGGGTKVEIK 1.1

What value of Kd has been recorded for this entry: human-adapted anti-TLR3 mAb HV1/LV7 (antibody, human IgG4, V domains shown, Human IgG4 (S228P, F234A, L235A), kappa; not shown: human kappa light chain constant region) VH: QVQLVQSGAEVKKPGASVKVSCKASGYTFTTYWIHWVRQAPGQRLEWMGEINPNNGRINYNEKFKTRVTITRDTSASTAYMELSSLRSEDTAVYYCARVGVMITTFPYWGQGTLVTVSS VL: DIQMTQSPSSLSASVGDRVTITCRASGNIHNYLAWFQQKPGKAPKSLIYNAKTLADGVPSRFSGSGSGTDFTLTISSLQPEDFATYYCQHFWSTPFTFGQGTKLEIK 7.2

Looking for the measured Kd of human-adapted anti-TLR3 mAb HV4/LV3 (antibody, human IgG4, V domains shown, Human IgG4 (S228P, F234A, L235A), kappa; not shown: human kappa light chain constant region) VH: QVQLVQSGAEVKKPGASVKVSCKASGYTFTTYWIHWVRQAPGQGLEWMGEINPNNGRINYNEKFKTRVTMTRDTSISTAYMELSRLRSDDTAVYYCARVGVMITTFPYWGQGTLVTVSS VL: DIQMTQSPSSLSASVGDRVTITCRASGNIHNYLAWYQQKPGKAPKRLIYNAKTLADGVPSRFSGSGSGTEFTLTISSLQPEDFATYYCQHFWSTPFTFGQGTKLEIK , can you help? 0.5

Switching to the query record.
Find the recorded Kd belonging to human-adapted anti-TLR3 mAb HV5/LV1 (antibody, human IgG4, V domains shown, Human IgG4 (S228P, F234A, L235A), kappa; not shown: human kappa light chain constant region) VH: QVQLVQSGAEVKKPGASVKVSCKASGYTFTTYWIHWVRQATGQGLEWMGEINPNNGRINYNEKFKTRVTMTRNTSISTAYMELSSLRSEDTAVYYCARVGVMITTFPYWGQGTLVTVSS VL: DIQMTQSPSSLSASVGDRVTITCRASGNIHNYLAWYQQKPGKAPKLLIYNAKTLADGVPSRFSGSGSGTDFTLTISSLQPEDFATYYCQHFWSTPFTFGQGTKLEIK and report it. 2
